assay.target: HLA-B*15:01
assay.remarks: IEDB peptide-MHC binding, purified MHC/competitive/fluorescence; filed as Kd, often an IC50 or EC50 that approximates it; bounds were set here for any values at or beyond the usual limits of such assays
details: source organism: Vibrio antiquarius
result.type: Kd (nM)
Give bare numbers, in nM.

INPUT: Give reported Kd value for `LVAPHMAMM`
OUTPUT: 96.5

----------
assay.target: HLA-A*02:01
assay.remarks: IEDB peptide-MHC binding, purified MHC/direct/fluorescence; filed as Kd, often an IC50 or EC50 that approximates it; bounds were set here for any values at or beyond the usual limits of such assays
details: source organism: Ebola virus - Mayinga, Zaire, 1976
result.type: pKd
Numbers only, as −log10 of the molar value.

INPUT: Give reported pKd value for `IISDLSIFI`
OUTPUT: 8.52

Reference for the values: the Immune Epitope Database (IEDB)
